src = the supplement of paper PMC10567573

B1: ATL3 (parent)
chain: FSFRYQQELEEEIKELYENFCKHN

variants of: B1; experiment: protein stability index of a GFP-peptide fusion (GPS, HEK-293T) (PSI 1-6); higher = more stable; conditions: c terminus: a fixed tail appended;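 note: lentivirally expressed fusions sorted by FACS into six bins by GFP to DsRed ratio, PSI derived from sequencing read proportions per bin multiplied by bin number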
MEASURED QUANTITY: protein stability index

- S2L: 1.85
- R4K: 2.33
- Y5L: 2.13
- I13F: 2.66
- K22V: 1.99
- R4W: 1.61
- S2T: 2.36
- E12R: 1.76
- L16C: 2.42
- L16M: 3.39
- F1I: 2.46
- E8H: 2.27
- E11T: 2.74
- Y17N: 3.09
- K22S: 2.33
- R4G: 2.88
- Y17W: 2.48
- L9T: 3.48
- F1L: 3.32
- K14C: 2.15
- I13S: 2.17
- E15V: 2.33
- N24C: 2.77
- L9F: 2.16
- E10T: 2.37
- K14P: 2.05
- F20M: 2.17
- S2Y: 2.73
- K14T: 2.29
- F20I: 1.71
- F20R: 2.8
- L16T: 2.5
- Q6G: 2.67
- L9M: 2.65
- E8R: 1.65
- E18C: 1.57
- F20T: 2.41
- L16P: 3
- F1C: 3.11
- K14N: 2.31
- Q6C: 2.38
- S2Q: 2.6
- N24P: 1.96
- Q6H: 2.03
- C21K: 2.66
- E8V: 1.46
- E12F: 1.91
- F3K: 2.09
- E10D: 3.31
- E18N: 2.15
- E10F: 2.06
- R4Y: 2.11
- Y5W: 2.21
- K22P: 1.97
- N19G: 1.73
- E15T: 1.83
- N24S: 2.14
- I13C: 3.79
- E11H: 2.29
- E8F: 1.89
- R4P: 2.87
- F1R: 1.95
- Q6N: 2.06
- H23M: 2.49
- I13W: 2.66
- F3C: 2.59
- L9S: 2.41
- E15L: 1.96
- E11L: 1.58
- E18H: 1.89
- Y5S: 3.35
- Y17D: 2.92
- E10V: 1.47
- N19I: 2.04
- E10H: 1.81
- N19P: 2.16
- E10K: 2.2
- R4C: 2.23
- Q7M: 2.39
- E11A: 2.76
